- target_system: GR (Homo sapiens, UniProt P04150)
- Construct: enzyme fragment for PathHunter enzyme fragment complementation (EFC)
- Sequence (P04150 1-777): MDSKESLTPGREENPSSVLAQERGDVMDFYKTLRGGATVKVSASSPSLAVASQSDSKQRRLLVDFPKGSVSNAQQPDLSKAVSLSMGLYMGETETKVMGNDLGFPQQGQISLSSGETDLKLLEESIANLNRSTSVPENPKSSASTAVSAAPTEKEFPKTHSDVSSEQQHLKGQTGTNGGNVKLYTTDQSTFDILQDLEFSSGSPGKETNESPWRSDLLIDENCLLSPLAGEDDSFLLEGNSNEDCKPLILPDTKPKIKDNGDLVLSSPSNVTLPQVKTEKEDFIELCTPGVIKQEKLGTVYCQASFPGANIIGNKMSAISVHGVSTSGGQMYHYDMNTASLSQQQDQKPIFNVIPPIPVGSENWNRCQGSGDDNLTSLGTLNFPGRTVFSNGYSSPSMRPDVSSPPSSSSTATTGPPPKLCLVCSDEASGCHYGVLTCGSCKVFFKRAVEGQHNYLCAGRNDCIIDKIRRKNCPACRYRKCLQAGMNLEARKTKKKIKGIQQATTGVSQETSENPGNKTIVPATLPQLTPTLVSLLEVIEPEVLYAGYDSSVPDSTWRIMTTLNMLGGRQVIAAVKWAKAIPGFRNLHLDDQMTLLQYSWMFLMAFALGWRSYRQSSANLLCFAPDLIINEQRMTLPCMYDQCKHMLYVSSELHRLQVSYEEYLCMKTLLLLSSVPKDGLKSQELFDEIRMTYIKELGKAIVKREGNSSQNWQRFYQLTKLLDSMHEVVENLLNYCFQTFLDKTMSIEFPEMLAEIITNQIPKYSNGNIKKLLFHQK
- test_description: NHR Protein Interaction GR Agonist
- experimental_context: read-out: RC50, result type EC50
pEC50: −log10 of the molar value.
value_type: pEC50

Entry Clc1cccc(C#Cc2n[nH]c3ncccc23)c1 [Compound 10.1] ; pEC50 = < 5.00

---

- Test system: EKP-induced epileptiform discharges in zebrafish larvae
- test_description: Zebrafish EKP seizure model, electrophysiology (non-invasive LFP recordings, PSD analysis)
- Format: in vivo, zebrafish (Danio rerio)
- experimental_context: 2 μM, 22 h incubation, 7 dpf larvae; mean, normalized PSD 20-90 Hz
Classification by efficacy against EKP-induced epileptiform discharges 2 μM follows these ranges: c1 = under 40%, c2 = from 40% up to 60%, c3 = 60% and over

compound: Nc1ncccc1C(O)C#Cc1cccc(Cl)c1 (racemic)
discrete_label: c1
--
compound: Nc1ncccc1C(=O)C#Cc1cccc(Cl)c1
discrete_label: c1
--
compound: CC(C)(C)c1ccc(-c2cc(=O)c3cccnc3[nH]2)cc1
discrete_label: c2
--
compound: Nc1ncccc1C(=O)/C=C/c1cccc(Cl)c1
discrete_label: c2
--
compound: Nc1ncccc1C(=O)C#Cc1ccc(Cl)cc1
discrete_label: c3
--
compound: CC(C)(C)c1ccc(C#CC(O)c2ccccc2)cc1 (racemic)
discrete_label: c2
--
compound: Cc1ccc(C#CC(=O)c2cccnc2N)cc1
discrete_label: c3
--
compound: Nc1ncccc1C(=O)C#Cc1ccc(F)cc1
discrete_label: c3

input: Which class does CCSC(=CC(=O)c1ccccc1)c1ccc(C(C)(C)C)cc1 (mixture of isomers) fall in?
output: c1

input: Into which bin does this compound go? CC(C)(C)c1ccc(C#CC(=O)c2ccccc2O)cc1
output: c1

input: Just checking, what class would you give CC(C)C#CC(=O)c1cccnc1N here?
output: c1

input: // bin(item) where item = O=C(C#Cc1cccc(Cl)c1)c1ccccc1
output: c1

input: Sort into band: Nc1ccccc1C(=O)C#Cc1cccc(Cl)c1
output: c3

input: Just checking, what class would you give Cc1ccccc1C#CC(=O)c1ccccc1 here?
output: c1

input: Which bin should I file COc1ccccc1C(=O)C#Cc1ccc(C(C)(C)C)cc1 under?
output: c3

---

- target_system: AR (Homo sapiens, UniProt P10275)
- Construct: enzyme fragment for PathHunter enzyme fragment complementation (EFC)
- Sequence (P10275 1-920): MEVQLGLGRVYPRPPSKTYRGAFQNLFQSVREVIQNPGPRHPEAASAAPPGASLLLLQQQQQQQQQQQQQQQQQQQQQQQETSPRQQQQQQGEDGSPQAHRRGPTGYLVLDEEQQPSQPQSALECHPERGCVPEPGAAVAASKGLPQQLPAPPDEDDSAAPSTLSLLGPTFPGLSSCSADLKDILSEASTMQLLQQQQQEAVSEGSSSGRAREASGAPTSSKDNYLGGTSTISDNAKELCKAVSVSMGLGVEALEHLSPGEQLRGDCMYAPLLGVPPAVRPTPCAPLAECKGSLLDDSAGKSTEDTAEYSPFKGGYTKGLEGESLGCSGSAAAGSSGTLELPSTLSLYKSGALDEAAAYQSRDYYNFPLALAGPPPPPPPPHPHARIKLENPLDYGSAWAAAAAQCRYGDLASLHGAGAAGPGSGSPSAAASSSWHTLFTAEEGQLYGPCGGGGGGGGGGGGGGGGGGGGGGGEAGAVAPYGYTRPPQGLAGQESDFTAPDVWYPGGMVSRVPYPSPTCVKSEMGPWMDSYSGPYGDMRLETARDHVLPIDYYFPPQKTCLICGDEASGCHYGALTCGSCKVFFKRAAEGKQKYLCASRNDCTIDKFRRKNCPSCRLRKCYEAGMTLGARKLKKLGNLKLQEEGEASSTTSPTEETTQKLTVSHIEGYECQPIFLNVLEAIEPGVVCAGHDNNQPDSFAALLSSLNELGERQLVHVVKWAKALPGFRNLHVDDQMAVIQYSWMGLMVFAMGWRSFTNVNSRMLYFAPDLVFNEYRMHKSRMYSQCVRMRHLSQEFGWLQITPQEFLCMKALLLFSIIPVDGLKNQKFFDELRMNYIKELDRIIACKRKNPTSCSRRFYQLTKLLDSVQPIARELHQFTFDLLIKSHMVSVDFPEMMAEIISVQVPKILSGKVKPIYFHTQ
- test_description: NHR Nuclear Translocation AR Antagonist
pIC50: −log10 of the molar value.
value_type: pIC50

The molecule identified as Clc1cccc(C#Cc2n[nH]c3ncccc23)c1 registered its pIC50 at < 5.00

---

Parameter pIC50: see the listing below.
- target_system: NET (Homo sapiens, UniProt P23975)
- Construct: Eurofins DiscoverX Corporation 87-1003DR
- Sequence (P23975 whole entry): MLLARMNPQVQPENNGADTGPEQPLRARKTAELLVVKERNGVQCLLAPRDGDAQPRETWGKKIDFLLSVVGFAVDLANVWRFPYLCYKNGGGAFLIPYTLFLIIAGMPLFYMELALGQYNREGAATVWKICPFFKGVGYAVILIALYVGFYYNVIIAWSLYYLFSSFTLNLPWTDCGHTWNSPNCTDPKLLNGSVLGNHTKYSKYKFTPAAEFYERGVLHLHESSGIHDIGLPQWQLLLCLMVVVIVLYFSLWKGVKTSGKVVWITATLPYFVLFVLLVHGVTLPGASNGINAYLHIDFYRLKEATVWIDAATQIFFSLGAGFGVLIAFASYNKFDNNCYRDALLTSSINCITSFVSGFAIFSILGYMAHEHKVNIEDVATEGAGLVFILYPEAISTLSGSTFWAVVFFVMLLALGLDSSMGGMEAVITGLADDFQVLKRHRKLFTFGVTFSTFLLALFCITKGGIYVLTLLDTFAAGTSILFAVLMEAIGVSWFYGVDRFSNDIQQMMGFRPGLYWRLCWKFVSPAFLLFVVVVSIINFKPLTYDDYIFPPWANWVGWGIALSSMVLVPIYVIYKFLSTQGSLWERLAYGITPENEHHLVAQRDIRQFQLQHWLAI
- test_description: Transporter NET Blocker
pIC50: −log10 of the molar value.

compound: Clc1cccc(C#Cc2n[nH]c3ncccc23)c1
pIC50: < 5.00

Please look at the following compound next.
Noted pIC50 for CC(C)(C)c1ccc(C#CC(O)c2ccccc2)cc1 (racemic) , tested on NET (Homo sapiens, UniProt P23975): < 5.00

---

- target_system: CAV1.2 (Homo sapiens, UniProt Q13936)
- test_description: Ion Channel CAV1.2 Blocker
- Type: cell-based
value_type: Emax at 30 min (%)
Give the quantity in %, number only.

The recorded Emax at 30 min for Clc1cccc(C#Cc2n[nH]c3ncccc23)c1 is 0

---

- test_description: Intrinsic clearance (liver microsomes)
- Type: in vitro ADME
- experimental_context: pooled liver microsomes, pH 7.4, human liver microsomes
- Experimental: In vitro ADME profiling of compounds was done by Eurofins Panlabs Inc (St Charles, MO, USA) using their ADME-Tox service (Cat Ref P375, Tier 1 ADME Panel). […] (28). […] The prediction engine distinguishes a total of 368 atom types and was optimized using a training set of more than 5000 molecules with experimentally determined log P values. […] Metabolic stability of the test compounds was evaluated in pooled liver microsomes from human species. […]
value_type: microsomal CLint at 100 nM (µL/min/mg)
Entry rule: numbers only, all in µL/min/mg.

Summary for this compound, CC(C)(C)c1ccc(C#CC(O)c2ccccc2)cc1 (racemic) : microsomal CLint at 100 nM is 381

Input Clc1cccc(C#Cc2n[nH]c3ncccc23)c1 . Output microsomal CLint at 100 nM: 748

---

- test_description: in vivo
- experimental_context: male, NMRI, mouse, brain, ip, 300 mg/kg
value_type: Cmax (ng/g)
// note: answer is a bare numeric in ng/g

compound: CC(C)(C)c1ccc(C#CC(O)c2ccccc2)cc1 (racemic) [Compound 3.3]
value_type: Cmax
assay_value: 96000

Next compound, Cmax to be filled in.
Entry Clc1cccc(C#Cc2n[nH]c3ncccc23)c1 [Compound 10.1] ; Cmax = 31000

---

Below are IC50 values recorded for UniProt P34972.
Sequence (P34972 whole entry): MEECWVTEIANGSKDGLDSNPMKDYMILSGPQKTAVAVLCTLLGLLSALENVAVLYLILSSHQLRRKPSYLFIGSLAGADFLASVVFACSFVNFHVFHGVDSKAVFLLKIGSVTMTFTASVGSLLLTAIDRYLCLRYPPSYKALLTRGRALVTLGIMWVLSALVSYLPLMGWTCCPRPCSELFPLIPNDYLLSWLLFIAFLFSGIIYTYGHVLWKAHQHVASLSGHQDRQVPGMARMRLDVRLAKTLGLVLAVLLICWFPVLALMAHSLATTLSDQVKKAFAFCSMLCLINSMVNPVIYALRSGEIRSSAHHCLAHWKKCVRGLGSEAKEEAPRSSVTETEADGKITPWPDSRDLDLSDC

compound: Clc1cccc(C#Cc2n[nH]c3ncccc23)c1 [Compound 10.1]
target_system: UniProt P34972
IC50: > 10 µM

Turning to the following compound.
Record CC(C)(C)c1ccc(C#CC(O)c2ccccc2)cc1 (racemic) [Compound 3.3] . Reported IC50: > 10 µM

---

- target_system: OPRD1 (Homo sapiens, UniProt P41143)
- Sequence (P41143 whole entry): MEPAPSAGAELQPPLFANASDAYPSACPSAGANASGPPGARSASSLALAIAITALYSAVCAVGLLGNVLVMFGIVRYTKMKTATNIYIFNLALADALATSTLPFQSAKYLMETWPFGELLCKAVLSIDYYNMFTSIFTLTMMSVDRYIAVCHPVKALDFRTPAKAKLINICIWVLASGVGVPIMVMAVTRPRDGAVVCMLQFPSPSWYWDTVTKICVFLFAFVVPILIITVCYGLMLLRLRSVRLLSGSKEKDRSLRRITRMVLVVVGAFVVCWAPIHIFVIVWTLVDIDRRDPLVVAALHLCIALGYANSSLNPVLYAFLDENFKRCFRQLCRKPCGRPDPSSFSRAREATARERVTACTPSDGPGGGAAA
- test_description: cAMP OPRD1 Agonist
Listed here are compounds together with their documented EC50.

compound: Clc1cccc(C#Cc2n[nH]c3ncccc23)c1
EC50: > 10 µM

Attention now shifts to the item below.
The compound CC(C)(C)c1ccc(C#CC(O)c2ccccc2)cc1 (racemic) showed EC50 equal to > 10 µM
